Origin of measurements: patent US20220283175A1

molecular target: UniProtKB P00918
Response field label: string, one of TRUE (IC50 strictly below 1000 nM) or FALSE.

Recorded results for 5 compounds are shown here.
compound: NS(=O)(=O)c1ccc(C(=O)O)c(Cl)c1 [M76, 2-Chloro-4-sulfamoylbenzoic acid]
assigned category: TRUE

compound: NS(=O)(=O)c1ccc(C(=O)O)cn1 [M65, 6-Sulfamoylpyridine-3-carboxylic acid]
assigned category: TRUE

compound: Nc1cc(S(N)(=O)=O)ccc1C(=O)O [2-NH2, 2-Amino-4-sulfamoylbenzoic acid]
assigned category: FALSE

compound: NS(=O)(=O)c1ccc(C(=O)O)c([N+](=O)[O-])c1 [M67, 2-Nitro-4-sulfamoylbenzoic acid]
assigned category: TRUE

compound: NS(=O)(=O)c1ccc(C(=O)O)cc1F [M88, 3-Fluoro-4-sulfamoylbenzoic acid]
assigned category: TRUE

INPUT: Item Cc1cc(S(N)(=O)=O)ccc1C(=O)O [M74, 2-methyl-4-sulfamoylbenzoic acid] : IC50 beneath 1000 nM, strictly?
OUTPUT: FALSE

INPUT: Item NS(=O)(=O)c1ccc(C(=O)O)c(F)c1 [M75, 2-Fluoro-4-sulfamoylbenzoic acid] : IC50 beneath 1000 nM, strictly?
OUTPUT: TRUE

INPUT: Item COc1cc(S(N)(=O)=O)ccc1C(=O)O [M73, 2-Methoxy-4-sulfamoylbenzoic acid] : IC50 beneath 1000 nM, strictly?
OUTPUT: FALSE

====

target: wild-type hCAII protein (Homo sapiens, UniProt P00918); assay: colorimetric IC50 assay (pNPA hydrolysis) with wild-type hCAII; assay type: biochemical; conditions: free NTM; relative to NTM M64
Response field label: string, one of true (Fold Enhancement strictly below 2) or false.

Recorded results for 3 compounds are shown here.
compound: COc1cc(S(N)(=O)=O)ccc1C(=O)O [M73, 2-Methoxy-4-sulfamoylbenzoic acid]
assigned category: true
--
compound: NS(=O)(=O)c1ccc(C(=O)O)cc1F [M88, 3-Fluoro-4-sulfamoylbenzoic acid]
assigned category: false
--
compound: NS(=O)(=O)c1ccc(C(=O)O)cn1 [M65, 6-Sulfamoylpyridine-3-carboxylic acid]
assigned category: false

INPUT: Item NS(=O)(=O)c1ccc(C(=O)O)c([N+](=O)[O-])c1 [M67, 2-Nitro-4-sulfamoylbenzoic acid] : Fold Enhancement beneath 2, strictly?
OUTPUT: false

INPUT: Item Cc1cc(S(N)(=O)=O)ccc1C(=O)O [M74, 2-methyl-4-sulfamoylbenzoic acid] : Fold Enhancement beneath 2, strictly?
OUTPUT: true

INPUT: Item NS(=O)(=O)c1ccc(C(=O)O)nc1 [M66] : Fold Enhancement beneath 2, strictly?
OUTPUT: true

INPUT: Item Nc1cc(S(N)(=O)=O)ccc1C(=O)O [2-NH2, 2-Amino-4-sulfamoylbenzoic acid] : Fold Enhancement beneath 2, strictly?
OUTPUT: true

INPUT: Item NS(=O)(=O)c1ccc(C(=O)O)c(Cl)c1 [M76, 2-Chloro-4-sulfamoylbenzoic acid] : Fold Enhancement beneath 2, strictly?
OUTPUT: false

INPUT: Item NS(=O)(=O)c1ccc(C(=O)O)c(F)c1 [M75, 2-Fluoro-4-sulfamoylbenzoic acid] : Fold Enhancement beneath 2, strictly?
OUTPUT: false

====

target: wild-type hCAII protein (Homo sapiens, UniProt P00918); experiment: colorimetric IC50 assay (pNPA hydrolysis) with wild-type hCAII; format: biochemical; conditions: NTM-AAEIR; relative to NTM M64
Rule: Fold Enhancement of 2 or more gives true; anything lower gives false.

Recorded results for 3 compounds are shown here.
compound: NS(=O)(=O)c1ccc(C(=O)O)c(F)c1 [M75, 2-Fluoro-4-sulfamoylbenzoic acid]
assigned category: true

compound: NS(=O)(=O)c1ccc(C(=O)O)cn1 [M65, 6-Sulfamoylpyridine-3-carboxylic acid]
assigned category: false

compound: NS(=O)(=O)c1ccc(C(=O)O)cc1F [M88, 3-Fluoro-4-sulfamoylbenzoic acid]
assigned category: false

Now for a further compound.
INPUT: API: above_or_equal(metric=Fold Enhancement, cutoff=2) for item NS(=O)(=O)c1ccc(C(=O)O)c(Cl)c1 [M76, 2-Chloro-4-sulfamoylbenzoic acid]
OUTPUT: false
